measurement_target: T1, AFP158/HLA-A*02:01 complex (human)
T1 construct: flowed as analyte in SPR
assay_protocol: SPR, fold vs AS170036 VL1VH1;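 also: crude scFv muteins immobilised on a sensor chip, peptide–MHC complex passed over at several concentrations, binding then buffer-driven dissociation, KD estimated from on- and off-rates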
measurement_label: Affinity increase (fold)
Please state the figure in fold; there is no need to write the unit.

Data request: Would you mind telling me what Affinity increase value was observed for AS170036 VL1VH1-57K108S (scFv, also called 27-AS170036 VL1VH1-57K108S) scFv: QSALTQPRSVSGSPGQSVTISCAGTSSDVGSENYVSWYQQHPGKAPKLMIYQVNKRASGVPDRFSGSKSGNTASLTISGLQAEDEADYYCASYRSSDHNIVFGGGTKLTVLGGGGSGGGGSGGGGSEVQLVESGGGLVQPGGSLRLSCAASGFTFSSYAMSWVRQAPGKGLEWVSTINSGTGKPYYADSVKGRFTISRDNSKNTLYLQMNSLRAEDTAVYYCAKNFFDGSWFLSPPAMDYWGQGTLVTVSSHHHHHH ?
Data returned: 10.1
